Where do the numbers come from? From ChEMBL document CHEMBL1221320.

Each entry below carries its recorded logD.
Experiment: Distribution coefficient, log D of the compound
Format: physicochemical
Settings: octanol/water; read-out: logD

{"columns": ["Chemical Smiles", "logD"],
 "data": [
  ["N=C(NCCC[C@@H](NC(=O)C(c1ccccc1)c1ccccc1)C(=O)NCc1ccc(O)cc1)NC(=O)CCCn1cc(CO)nn1", 1.8],
  ["N=C(NCCC[C@@H](NC(=O)C(c1ccccc1)c1ccccc1)C(=O)NCc1ccc(O)cc1)NC(=O)COCCOCCOCC(=O)NCCNC(=O)c1ccc2ccc3cccc4ccc1c2c34", 6],
  ["N=C(NCCC[C@@H](NC(=O)C(c1ccccc1)c1ccccc1)C(=O)NCc1ccc(O)cc1)NC(=O)c1ccc2ccc3cccc4ccc1c2c34", 7.2]
]}

====

Each entry below carries its recorded pKi.
Target: Neuropeptide Y receptor type 1 (Homo sapiens, UniProt P25929)
Experiment: Displacement of [3H]UR-MK114 from NPY1 receptor in human SK-N-MC cells
Assay type: cell-based
Conditions: read-out: Ki
pKi: −log10 of the molar value.

{"columns": ["Chemical Smiles", "Study Target", "pKi"],
 "data": [
  ["N=C(NCCC[C@@H](NC(=O)C(c1ccccc1)c1ccccc1)C(=O)NCc1ccc(O)cc1)NC(=O)CCCCCCC(=O)NCCC(=O)OCc1ccccc1", "Neuropeptide Y receptor type 1 (Homo sapiens, UniProt P25929)", 7.40],
  ["N=C(NCCC[C@@H](NC(=O)C(c1ccccc1)c1ccccc1)C(=O)NCc1ccc(O)cc1)NC(=O)CCC(=O)OC[C@H]1O[C@@H](O)[C@H](O)[C@@H](O)[C@H]1O", "Neuropeptide Y receptor type 1 (Homo sapiens, UniProt P25929)", 7.39],
  ["N=C(NCCC[C@@H](NC(=O)C(c1ccccc1)c1ccccc1)C(=O)NCc1ccc(O)cc1)NC(=O)CCCCCCC(=O)NCCN", "Neuropeptide Y receptor type 1 (Homo sapiens, UniProt P25929)", 6.89]
]}

====

Each entry below carries its recorded pKi.
Molecular target: Neuropeptide Y receptor type 1 (Homo sapiens, UniProt P25929)
Sequence (P25929 whole entry): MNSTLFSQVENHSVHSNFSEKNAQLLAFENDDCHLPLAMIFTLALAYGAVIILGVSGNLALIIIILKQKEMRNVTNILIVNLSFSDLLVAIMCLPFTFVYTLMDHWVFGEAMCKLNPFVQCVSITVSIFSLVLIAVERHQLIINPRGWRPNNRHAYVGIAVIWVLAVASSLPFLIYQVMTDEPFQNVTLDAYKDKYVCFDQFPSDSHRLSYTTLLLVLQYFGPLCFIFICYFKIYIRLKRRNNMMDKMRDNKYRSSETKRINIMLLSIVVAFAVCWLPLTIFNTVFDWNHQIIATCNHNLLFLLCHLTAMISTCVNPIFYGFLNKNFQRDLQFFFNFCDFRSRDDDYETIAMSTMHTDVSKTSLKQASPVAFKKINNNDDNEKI
Assay: Displacement of [3H]UR-MK114 from NPY1 receptor in human SK-N-MC cells
Type: cell-based
Details: read-out: Ki
pKi: −log10 of the molar value.

{"columns": ["Chemical Smiles", "pKi"],
 "data": [
  ["NC(=NCCC[C@@H](NC(=O)C(c1ccccc1)c1ccccc1)C(=O)NCc1ccc(O)cc1)NC(=O)CCCCCCC(=O)NCCC(=O)O", 7.14],
  ["COC(=O)CCCCCCC(=O)NC(N)=NCCC[C@@H](NC(=O)C(c1ccccc1)c1ccccc1)C(=O)NCc1ccc(O)cc1", 9.05],
  ["NCc1cn(CCCC(=O)NC(N)=NCCC[C@@H](NC(=O)C(c2ccccc2)c2ccccc2)C(=O)NCc2ccc(O)cc2)nn1", 8.17],
  ["CC(=O)OC[C@@H](OC(C)=O)[C@@H](OC(C)=O)[C@H](OC(C)=O)[C@@H](OC(C)=O)C(=O)NC(N)=NCCC[C@@H](NC(=O)C(c1ccccc1)c1ccccc1)C(=O)NCc1ccc(O)cc1", 7.08],
  ["N=C(NCCC[C@@H](NC(=O)C(c1ccccc1)c1ccccc1)C(=O)NCc1ccc(O)cc1)NC(=O)COCCOCCOCC(=O)NCCNC(=O)c1ccc2ccc3cccc4ccc1c2c34", 7.23],
  ["CCCCCCCCCCCCC#CC#CCCCCCCCCC(=O)NC(=N)NCCC[C@@H](NC(=O)C(c1ccccc1)c1ccccc1)C(=O)NCc1ccc(O)cc1", 5.82]
]}
